Experiment: serotonin-gated TRPC4 signal block – cell-based, second counter screen, HEK293 TRPC4/5HT1a, Fluo-4, counter-screen for TRPC4 inhibitor project, confirmation (AID 434978);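 as to outcome: serotonin given first at submaximal then at maximal dose after compound preincubation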
Conditions: Fluo-4 calcium flux, at 10 µM, serotonin added to trigger calcium flux
The source made the active and inactive calls.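 The calls were made as follows: active = primary screen active whose calcium signal fell more than 3 SD beyond the full-serotonin control mean in both duplicate plates; inactive = the rest.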
The reply should name one outcome from true (active), false (inactive)

Examples with answers:
compound	class
COC(=O)c1ccc(C(=S)NCC2(N(C)C)CCCCC2)cc1	false
N#CC1=C(N)C(C#N)(C#N)C(c2cccnc2)C2CC(c3ccccc3)CC=C12 (stereo not drawn)	false

For Cc1cccc(C(=O)OC2CCCN(C)C2)c1C (stereo not drawn) , which call appears in the assay record?
false

For `Cn1c(=O)c2c(nc(SCc3cccnc3)n2Cc2ccc(F)cc2)n(C)c1=O` , which call appears in the assay record?
true

For `Clc1ccc(-c2csc3ncnc(NCCN4CCOCC4)c23)cc1` , which call appears in the assay record?
true

For `COCCn1c(SCc2cccc([N+](=O)[O-])c2)nc2ccccc2c1=O` , which call appears in the assay record?
true

----------
Test system: TRPC4 (mouse), co-expressed with 5HT1a in HEK293
Assay: enhancement of serotonin-evoked TRPC4 response – cell-based, second counter screen, HEK293 TRPC4/5HT1a, Fluo-4, counter-screen for TRPC4 potentiator project, confirmation (AID 434979)
Conditions: Fluo-4 calcium flux, at 10 µM, serotonin added at its EC20 dose; active compounds read high
Active and inactive are the calls of the source.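 The calls were made as follows: active = signal rise over 3 SD above mean of control wells given weak agonist, in both repeats and first screen; inactive = the rest.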
assay-metric: potentiation

molecule	experimental-value
COCCCn1c(N)c(-c2nc3ccccc3n2C)c2nc3ccccc3nc21	inactive
CCCn1c(=N)n(CC(=O)C(C)(C)C)c2ccccc21	inactive
CC(=O)c1ccc2c(c1)N(C)c1ccccc1S2	inactive
COc1ccc(-c2cc(C(F)(F)F)nc(N3CCN(C)CC3)n2)cc1	14.5% (active)
CCCn1nc([N+](=O)[O-])c(C(C#N)c2nc3ccccc3o2)c(Cl)c1=O (stereo unspecified)	inactive

Shift focus to the following entry.
Find the measured potentiation: item `O=C(NCCCN1CCCC1=O)c1ccc(CNS(=O)(=O)c2ccc(F)cc2)cc1` , target or system TRPC4 (mouse), co-expressed with 5HT1a in HEK293.
14.7% (active)

----------
Tested on: TRPC4 beta (transient receptor potential cation channel C4), mouse
Experiment: potentiation of DAMGO EC20 TRPC4 response – cell-based, Fluo-4, HEK293 TRPC4beta/mu-opioid, confirmation (AID 2555)
Details: DAMGO EC20, Fluo-4 calcium flux, at 10 µM; active compounds read high
Calls of active or inactive are those of the source.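 The calls were made as follows: active = primary screen hit whose calcium fluorescence ratio, in both repeats, exceeds the weak agonist control mean by 3 SD; inactive = the rest.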
assay-metric: potentiation

As a guide, the following entries are already answered.
compound	assay-metric	experimental-value
C=CCn1c(SCCN2CCOCC2)nc2c1c(=O)[nH]c(=O)n2C	potentiation	inactive
O=C(CSc1nnc(-c2ccccc2)o1)c1ccc2c(c1)OCCO2	potentiation	inactive
CCN1C(=O)/C(=C\N2CCCc3ccccc32)SC1=S	potentiation	inactive
Cc1cc(CSC(=N)N)c(CSC(=N)N)cc1C	potentiation	inactive
Cc1ccc(C)c(-n2cc(CNCCCn3cccn3)c(-c3ccccc3)n2)c1	potentiation	inactive
CSc1ncccc1C(=O)OCC(=O)N(CC(C)C)c1c(N)n(Cc2ccccc2)c(=O)[nH]c1=O	potentiation	inactive

List potentiation for every entry below, keeping the order given.
1. Cc1nc(N2CCN(c3ccccn3)CC2)c2c(C)c(C(=O)N3CCN(c4ccc(F)cc4)CC3)sc2n1
2. CN(C)CCN1C(=O)C2C(C(=O)Nc3cc(Cl)cc(Cl)c3)C3C=CC2(O3)C1C(=O)NC1CCCCC1 (configuration not stated)
3. Cc1ccc(OCCn2c(C)nc3ccccc32)cc1
4. Cc1ccc(N(CC(=O)NC2CCCC2)C(=O)CNC(=O)c2cccs2)cc1F
5. O=C(Nc1ccnn1C1CCN(CCCC2CCCC2)CC1)c1ccccc1Cl

1. inactive
2. inactive
3. inactive
4. inactive
5. inactive

List potentiation for every entry below, keeping the order given.
1. O=C(NC1CCCN(Cc2ccc(Cl)cc2)C1)C1CCC1 (configuration not stated)
2. CCc1cc(C(c2cccc(OC)c2)N2CCOCC2)c(NC(=O)c2ccccc2)s1 (configuration not stated)
3. O=c1c2ccccc2nc(COc2ccccc2)n1/N=C/c1cc([N+](=O)[O-])ccc1O

1. inactive
2. inactive
3. 23% (active)

List potentiation for every entry below, keeping the order given.
1. CCN(CC)Cc1cc(CCNC(=O)c2ccc(Cl)cc2)ccc1O
2. COc1cc(NC(=O)C(C)Oc2ccccc2)cc(OC)c1 (configuration not stated)
3. Cc1ccc(NC(=O)CN2CCc3ccccc3C2)cc1F
4. O=C(NCCc1cnc[nH]1)c1ccc(-c2ccccc2)cc1
5. CCN(CCCNC(=O)CCCOc1cc(=O)n(C)c2ccccc12)Cc1ccccc1
6. Cc1ccc(/C=N/NC(=O)CSc2nc3ccccc3n2Cc2ccccc2)o1
7. Oc1ccc(-c2[nH]ncc2-c2ccc(Br)cc2)c(O)c1
8. CC(C)(C)NC(=S)N/N=C\c1ccc(-c2ccc([N+](=O)[O-])cc2)o1

1: inactive; 2: inactive; 3: inactive; 4: inactive; 5: inactive; 6: inactive; 7: inactive; 8: inactive
